All figures here come from patent US20230235040A1.

Target: T1, hu-IL-36α (human IL-36α, N-terminally truncated active form K6-F158) (human, UniProt Q9UHA7 6-158)
T1 construct: Purification tag cleaved off; Biotinylated where captured (SPR, some ELISAs); also called hu-IL-36a
T1 sequence: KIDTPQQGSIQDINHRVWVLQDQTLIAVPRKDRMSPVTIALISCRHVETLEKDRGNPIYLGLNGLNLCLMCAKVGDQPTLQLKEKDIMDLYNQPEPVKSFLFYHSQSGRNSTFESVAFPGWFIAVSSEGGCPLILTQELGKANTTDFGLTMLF
Test: phage competition ELISA: Fab on phage, soluble hu-IL-36α titrated against coated hu-IL-36α
For each of the binders below, state its IC50.
One number for each entry, in nM.

Previously resolved entries follow.
BINDER	VALUE_UNIT	TEST_RESULT
mAb2.4 Fab (phage-displayed) (Fab, V domains shown) VH: ELQLQESGPGLVKPSETLSLTCTVSGGSISNSSYYWGWIRQPPGKGLEWIGSIYYTGNTYYLPSLKSRVTISVDTSKNQFSLKLSSVTAADTAVYYCARVRYGVGVPRYFDPWGQGTLVTVSS VL: ESVLTQPPSVSGAPGQRVTISCTGSSSNIGAHYDVHWYQQLPGTAPKLLIYGNDNRPSGVPDRFSGSKSGTSASLAITGLQAEDEADYYCQSYDYSLSGYVFGGGTKLTVL	nM	0.68
mAb2.2 Fab (phage-displayed) (Fab, V domains shown) VH: ELQLQESGPGLVKPSETLSLTCTVSGGSISESSYYWGWIRQPPGKGLEWIGSIYYTGNTYYNPSLKSRVTISVDTSKNQFSLKLSSVTAADTAVYYCAGVRYGVGVPRYFDPWGQGTLVTVSS VL: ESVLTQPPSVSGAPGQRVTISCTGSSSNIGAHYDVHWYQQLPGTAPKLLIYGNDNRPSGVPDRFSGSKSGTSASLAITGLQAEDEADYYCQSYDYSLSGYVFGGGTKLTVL	nM	0.75
mAb2.1 Fab (phage-displayed) (Fab, V domains shown) VH: ELQLQESGPGLVKPSETLSLTCTVSGGSISDSSYYWGWIRQPPGKGLEWIGSIYYTGNTYYNSSLKSRVTISVDTSKNQFSLKLSSVTAADTAVYYCARVRYGVGVPRYFDPWGQGTLVTVSS VL: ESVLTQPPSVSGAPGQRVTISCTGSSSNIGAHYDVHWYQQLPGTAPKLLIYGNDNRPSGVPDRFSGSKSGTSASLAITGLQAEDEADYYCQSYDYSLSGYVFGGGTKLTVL	nM	1.03

# evaluate next
Suppose we examine the binder mAb2.5 Fab (phage-displayed) (Fab, V domains shown) VH: ELQLQESGPGLVKPSETLSLTCTVSGGSISESSYYWGWIRQPPGKGLEWIGSIYYTGNTYYLPSLKSRVTISVDTSKNQFSLKLSSVTAADTAVYYCARVRYGVGVPRYFDPWGQGTLVTVSS VL: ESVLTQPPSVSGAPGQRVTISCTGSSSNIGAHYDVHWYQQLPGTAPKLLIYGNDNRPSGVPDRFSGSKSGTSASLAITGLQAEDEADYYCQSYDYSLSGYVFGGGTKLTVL ; what IC50 value has been reported?
0.77
